Test system: barnyardgrass (Echinochloa crus-galli)
Test: Test A preemergence, barnyardgrass
Assay type: in vivo
Conditions: Preemergence, 125 g ai/ha; visual injury on 0 to 100 scale (0 no effect, 100 complete control), approximately 10 days
For each record, write down the corresponding Barnyardgrass plant response rating.
Just the number.

Param item = Cc1cc(C)c(-c2cc(C(C)C)nn(C)c2=O)cc1NS(=O)(=O)C(F)(F)F ; retrieve measured Barnyardgrass plant response rating.
50

Next up: Cc1cc(C)c(N(S(=O)(=O)C(F)(F)F)S(=O)(=O)C(F)(F)F)cc1-c1cc(Cl)nn(C)c1=O
90

Next up: COc1cnn(C)c(=O)c1-c1cc(NS(=O)(=O)C(F)(F)F)c(C)cc1C
0

Next up: CSC1CCCN(C(=O)c2cc(NS(=O)(=O)C(F)(F)F)c(C)cc2C)C1 (centres unmarked)
50

Next up: CCCn1nccc(-c2cc(NS(=O)(=O)C(F)(F)F)c(C)cc2C)c1=O
100

Next up: CO[C@@H]1CCCN(C(=O)c2cc(N(S(=O)(=O)C(F)(F)F)S(=O)(=O)C(F)(F)F)c(C)cc2C)C1
80

Next up: Cc1cc(C)c(C2=NOC3(CCSCC3)C2)cc1NS(=O)(=O)C(F)(F)F
70

Next up: Cc1cc(Cl)c(NS(=O)(=O)C(F)(F)F)cc1C(=O)N1CC(C)OC(C)C1 (centres unmarked)
100
